Target: Proteasome subunit beta (Trypanosoma cruzi)
Assay: Trypanosoma cruzi proteasome chymotrypsin-like activity (TcProtChymo) assay. Note: in the data most compounds retested in dose-response had high values.
Type: functional
Parameters: scale not given: direction of the effect not stated beside the values
Conditions: 9.37 µM
Percent Effect below 10% gives Not fulfilled; Percent Effect at or above it gives Fulfilled.

Molecule	Qualitative label
CC(C)c1nc(C2CCCN(C(=O)CCCn3cncn3)C2)no1 (stereo unspecified)	Fulfilled
Cc1ccc(OCC(=O)NS(=O)(=O)c2cccnc2)cc1C	Fulfilled
CCc1ccc(C(=O)NC2CCN(c3cnn(C)c3)C2=O)o1 (stereo unspecified)	Not fulfilled

Tell me whether Percent Effect is at least 10% here: "Cc1c[nH]nc1C1CCN(S(=O)(=O)N(C)C)CC1"
Not fulfilled

How about this molecule: "CCO[C@@H]1CC[C@H]2[C@H]1OCCN2C(=O)C1CCOCC1"
Fulfilled

How about this molecule: "COc1cc(N2C[C@@H]3COC[C@]3(COCc3cccc(C)n3)C2)ncn1"
Fulfilled

How about this molecule: "Cn1cc(C(=O)NCc2cn3c(n2)CN(CC2CCOCC2)CC3)cn1"
Fulfilled

How about this molecule: "CCc1nc(NS(=O)(=O)c2cc(C)ccc2F)no1"
Not fulfilled

How about this molecule: "Cc1nn(CC(C)C)c(N(C)C)c1CNCc1cc2ccccc2[nH]1"
Not fulfilled

How about this molecule: "Cc1ccc(CN2C[C@@H]3COC[C@H](NS(C)(=O)=O)[C@@H]3C2)o1"
Not fulfilled

How about this molecule: "CN1CCN(Cc2cnc3n2CCN(Cc2cccs2)C3)CC1"
Fulfilled

###

Target: Chromo domain-containing protein 1 (Saccharomyces cerevisiae (strain ATCC 204508 / S288c) (Baker's yeast)) (UniProt P32657)
Sequence (P32657 whole entry, the tested form may be a part): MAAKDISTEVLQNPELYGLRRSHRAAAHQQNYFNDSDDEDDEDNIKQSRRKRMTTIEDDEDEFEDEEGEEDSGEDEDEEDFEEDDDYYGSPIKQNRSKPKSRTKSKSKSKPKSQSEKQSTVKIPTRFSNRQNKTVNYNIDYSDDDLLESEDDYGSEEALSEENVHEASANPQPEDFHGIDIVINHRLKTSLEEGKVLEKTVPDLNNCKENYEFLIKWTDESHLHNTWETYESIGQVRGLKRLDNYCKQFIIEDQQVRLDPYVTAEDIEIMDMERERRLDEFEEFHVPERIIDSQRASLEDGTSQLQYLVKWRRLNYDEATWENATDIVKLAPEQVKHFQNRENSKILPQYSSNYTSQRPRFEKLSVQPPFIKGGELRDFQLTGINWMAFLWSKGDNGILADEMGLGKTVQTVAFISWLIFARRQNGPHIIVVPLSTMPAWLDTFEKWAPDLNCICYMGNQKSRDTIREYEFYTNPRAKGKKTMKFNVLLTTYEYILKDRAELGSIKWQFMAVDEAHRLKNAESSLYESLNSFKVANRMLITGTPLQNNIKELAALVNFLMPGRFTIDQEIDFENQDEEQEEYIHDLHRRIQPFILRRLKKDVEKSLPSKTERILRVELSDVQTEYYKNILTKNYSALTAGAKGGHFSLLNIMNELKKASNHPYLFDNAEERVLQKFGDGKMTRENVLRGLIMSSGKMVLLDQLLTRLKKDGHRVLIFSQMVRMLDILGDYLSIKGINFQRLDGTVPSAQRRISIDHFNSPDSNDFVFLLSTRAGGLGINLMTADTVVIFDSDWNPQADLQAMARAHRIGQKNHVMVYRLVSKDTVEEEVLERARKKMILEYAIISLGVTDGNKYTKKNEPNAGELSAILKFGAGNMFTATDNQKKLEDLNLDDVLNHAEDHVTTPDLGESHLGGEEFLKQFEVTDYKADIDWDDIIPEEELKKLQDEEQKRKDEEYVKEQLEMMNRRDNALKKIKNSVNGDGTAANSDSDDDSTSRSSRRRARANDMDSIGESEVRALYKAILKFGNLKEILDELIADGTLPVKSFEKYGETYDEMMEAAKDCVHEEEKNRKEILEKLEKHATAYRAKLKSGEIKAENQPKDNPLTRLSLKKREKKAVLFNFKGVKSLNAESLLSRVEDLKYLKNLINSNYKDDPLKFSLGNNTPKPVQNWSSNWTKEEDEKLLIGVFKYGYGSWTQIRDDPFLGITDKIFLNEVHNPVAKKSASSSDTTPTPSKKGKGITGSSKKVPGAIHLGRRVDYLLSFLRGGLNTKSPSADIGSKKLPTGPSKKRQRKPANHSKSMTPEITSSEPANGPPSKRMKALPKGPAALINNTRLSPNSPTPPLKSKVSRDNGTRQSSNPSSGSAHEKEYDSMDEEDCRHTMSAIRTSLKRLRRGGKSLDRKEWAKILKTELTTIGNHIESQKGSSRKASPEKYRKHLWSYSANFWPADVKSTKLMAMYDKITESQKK
Assay: ScCHD-1 Enzyme Inhibition Assay; note: in the data most compounds retested in dose-response had high values
Type: functional
Set-up: scale not given: direction of the effect not stated beside the values
Conditions: 30 µM
The molecules listed here are annotated with their Percent Effect.
Provide the reading as a plain figure in %.

Molecule	Percent Effect (%)
COC(=O)C(NC(=O)c1ccco1)c1cc(F)ccc1F (stereo unspecified)	-8.66
CSc1ncccc1C(=O)N1C[C@H]2CC[C@@H]1CN(c1ncccn1)C2	-5.74

Form field: reported Percent Effect of "Cc1nc(CN2CCN(C(=O)c3ccn(C)c(=O)c3)CC2)cs1"
-25.7

How about this molecule: CCS(=O)(=O)N1Cc2nccn2CC(Cn2nc(C)nc2C)C1 (stereo unspecified)
-4.54

How about this molecule: "CCCNC(=O)CCC(=O)Nc1ccc(-n2cncn2)c(F)c1"
-1.12

How about this molecule: NC(=O)c1cc(C2CCCN(C(=O)CCc3cscn3)C2)n[nH]1 (stereo unspecified)
-5.18

How about this molecule: CC(=O)N(C)c1nc(CN2CCOC(Cn3cccn3)C2)cs1 (stereo unspecified)
-5.18

How about this molecule: CCc1ccc(OCC(O)CN2CCN(S(C)(=O)=O)CC2)cc1 (stereo unspecified)
-21.6

How about this molecule: "CS(=O)(=O)N1CC[C@]2(C[C@@H](OCC3CCC3)CO2)C1"
-5.25

How about this molecule: CN(C)CC1CSCCCN1C(=O)c1ccc(=O)[nH]c1 (stereo unspecified)
-3.68

How about this molecule: "CCOCCn1c(=O)[nH]c2cc(C(=O)N(C)Cc3nc(C)cs3)ccc21"
-3.61

###

Target: AMP-activated protein kinase, AMPK (Homo sapiens) (UniProt P54646+O43741+P54619+Q9UGJ0+Q9Y478+Q13131+Q9UGI9)
Test: AMP-dependent Kinase enzyme assay. An in vitro enzyme assay that detects ADP turnover that is directly proportional to AMPK activity. This uses naive AMPK that is activated during the assay with MK-8722
Type: functional
Design: scale not given: direction of the effect not stated beside the values
Details: 30 µM
Measured endpoint: Percent Effect (%)
Provide the reading as a plain figure in %.

Molecule	Percent Effect, %
Cc1cc(N2CCN(CCO)CC2)nc(-c2ccncc2)n1	0.962
Cn1ncc2c(=O)[nH]c(CN3CCC(Cc4ccccc4)CC3)nc21	-7.07
Cc1nc(Nc2nccs2)cc(C2CCCN2C2CCOCC2)n1 (stereo unspecified)	4.38

Form field: reported Percent Effect of "Cc1c(C)n(-c2ccccn2)c2nc3c(c(N)c12)CCCC3"
7.92

How about this molecule: "Cc1cc2c(=O)n3c(nc2s1)CCN(C(=O)c1cnn(C)c1C)CC3"
6.62

How about this molecule: "CC(=O)c1ccc(N2CCC(CO)(CCOc3ccccc3)CC2)nc1"
3.88

How about this molecule: "O=C(CCC1CC1)N1C[C@@H](CN2CCCC2)[C@@H](CO)C1"
2.73

How about this molecule: "O=C(Cc1cccc(F)c1)NCCNCc1ccco1"
7.05

How about this molecule: "COCCN(Cc1ccc(F)cc1Cl)C(=O)c1ccncc1"
-3.11

How about this molecule: CC(C)c1nc(C2CCCN2CC(=O)N2CCNC2=O)no1 (stereo unspecified)
-0.208

How about this molecule: "COCCNC(=O)[C@H]1C[C@@H]2CCN(c3nncs3)C[C@H]2O1"
6.18

###

Target: Sialic acid-binding Ig-like lectin 9 (Homo sapiens)
Experiment: Hs-Siglec9 ALPHAscreen SOP 20170721
Set-up: scale not given: direction of the effect not stated beside the values
Conditions: 10 µM
Measured endpoint: Percent Effect (%)
Provide the reading as a plain figure in %.

Form field: reported Percent Effect of "CSc1ccccc1CN1CCn2nc(CNC(C)=O)cc2C1"
8.13

How about this molecule: "COc1c(CNCc2cccc(Cn3ccnc3)c2)c(C)nn1C"
13.9

How about this molecule: "O=c1c2cnc(N3CCCCC3)nc2ccn1-c1ccccc1"
-5.64

How about this molecule: "Cn1cc(C(=O)N2C[C@@H]3COC[C@]3(COCc3cccnc3)C2)cn1"
1.08

How about this molecule: "Cc1nc(CN2CCc3ncnc(-c4ccc(F)cc4)c3CC2)cs1"
-0.105

How about this molecule: "Cn1nccc1CNC(=O)Nc1cc(C(F)(F)F)c[nH]c1=O"
11.9

How about this molecule: COC(=O)CCN1CCCC1c1ccccc1Cl (configuration not stated)
1.78

How about this molecule: "Cc1ccc(C)c(NC(=O)N(C)Cc2cnn(C)c2)c1"
-5.73

How about this molecule: CC(C(=O)NCc1ccnc(N2CCN(C)CC2)c1)n1cccn1 (configuration not stated)
6.59

How about this molecule: "O=C(Nc1ccc(F)cc1F)Nc1c[nH]c(=O)[nH]c1=O"
-2.96

How about this molecule: O=C(NCc1cccc(F)c1)N1CCC2(CC(=O)N(c3ccsc3)C2)C1 (configuration not stated)
-0.223

How about this molecule: CS(=O)(=O)NCC(=O)NC1CCc2nccn2C1 (configuration not stated)
-2.36

###

System: Trypanosoma cruzi
Test: Trypanosoma cruzi phosphomannomutase and mannose-1-phosphate guanylyltransferase assay
Format: functional
Parameters: scale not given: direction of the effect not stated beside the values
Conditions: 10 µM
Measured endpoint: Percent Effect (%)
Provide the reading as a plain figure in %.

Below are worked cases with known answers.
Compound	Measured endpoint	Obs value
O=C(CCn1cnnc1)N1CCCC(c2ncc[nH]2)C1 (stereo unspecified)	Percent Effect	-6.27
CCN1CCOC(CNCc2ccccc2OCC(=O)N(C)C)C1 (stereo unspecified)	Percent Effect	8.31
Cn1cccc1C(=O)N1CCN(Cc2ccncc2)c2ncccc2C1	Percent Effect	-4.83

Form field: reported Percent Effect of CCC(C(=O)NC)N(c1cccc(C)c1)S(C)(=O)=O (stereo unspecified)
6.72

How about this compound: Cc1n[nH]cc1C(=O)N1CCCC(n2nnc3cc(F)ccc32)C1 (stereo unspecified)
6.5

How about this compound: CN(CCCNC(=O)N1CCCC1c1ccsc1)c1ccccn1 (stereo unspecified)
1.5

###

The compounds listed here are annotated with their Percent Effect.
Molecular target: Ubiquitin-activating enzyme e1, putative (Leishmania donovani (strain BPK282A1))
Test: Leishmania donovani Ubiquitin Activating Enzyme (LdE1)
Type: functional
Design: scale not given: direction of the effect not stated beside the values
Conditions: 30 µM
Entries with a potency or affinity are not part of this list.
Provide the reading as a plain figure in %.

Form field: reported Percent Effect of "CC(C)OCc1ccc(CNC(=O)CC(F)(F)F)cc1"
21.1

How about this compound: "Cc1ncc2c(n1)CN(Cc1noc(C3CC3)n1)CC2"
15.6

How about this compound: "O=C(O)c1nnn(-c2ccc(F)c(F)c2)c1-c1ccncc1"
13.2

How about this compound: "CN(C)C(=O)N1C[C@H]2CN(Cc3cccc(F)c3)C(=O)[C@H]2C1"
10.8

###

The compounds listed here are annotated with their Percent Effect.
Target: Protein translocase subunit SecA (Escherichia coli (strain K12)) (UniProt P10408)
Sequence (P10408 whole entry): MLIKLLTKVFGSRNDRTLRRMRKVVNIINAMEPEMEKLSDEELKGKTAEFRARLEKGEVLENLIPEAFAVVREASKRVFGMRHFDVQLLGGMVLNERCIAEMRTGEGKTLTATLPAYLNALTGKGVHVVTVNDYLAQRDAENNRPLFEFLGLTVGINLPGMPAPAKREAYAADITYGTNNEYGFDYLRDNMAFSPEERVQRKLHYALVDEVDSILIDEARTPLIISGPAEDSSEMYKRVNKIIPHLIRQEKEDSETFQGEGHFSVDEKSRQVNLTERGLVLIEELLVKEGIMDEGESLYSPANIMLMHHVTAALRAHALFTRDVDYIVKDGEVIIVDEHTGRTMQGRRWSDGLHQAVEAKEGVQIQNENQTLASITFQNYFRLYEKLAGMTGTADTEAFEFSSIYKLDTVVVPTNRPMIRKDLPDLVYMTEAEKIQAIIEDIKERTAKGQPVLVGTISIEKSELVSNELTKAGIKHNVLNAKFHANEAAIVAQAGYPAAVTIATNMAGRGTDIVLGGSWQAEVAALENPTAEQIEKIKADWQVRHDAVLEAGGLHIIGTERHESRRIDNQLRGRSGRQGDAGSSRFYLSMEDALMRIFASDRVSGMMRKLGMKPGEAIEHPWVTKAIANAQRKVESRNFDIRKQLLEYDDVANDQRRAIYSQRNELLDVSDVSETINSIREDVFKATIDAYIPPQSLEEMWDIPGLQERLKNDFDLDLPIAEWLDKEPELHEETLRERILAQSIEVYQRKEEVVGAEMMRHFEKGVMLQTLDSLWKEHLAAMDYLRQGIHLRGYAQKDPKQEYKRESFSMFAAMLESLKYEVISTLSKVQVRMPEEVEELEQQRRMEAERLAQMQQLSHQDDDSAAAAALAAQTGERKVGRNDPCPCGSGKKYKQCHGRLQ
Assay: Assay to Identify E. coli SecA ATPase Inhibitors
Assay type: functional
Parameters: scale not given: direction of the effect not stated beside the values
Settings: 30 µM
Potency and affinity values are given separately.
Provide the reading as a plain figure in %.

Compound	Experimental target	Percent Effect (%)
c1csc(-c2nc(CN3CCOC(Cn4cncn4)C3)co2)c1 (configuration not stated)	Protein translocase subunit SecA (Escherichia coli (strain K12)) (UniProt P10408)	-2.48
O=C([C@H]1COC[C@H]2CN(Cc3ccco3)C[C@H]21)N1CCCO1	Protein translocase subunit SecA (Escherichia coli (strain K12)) (UniProt P10408)	-7.92
Cc1ccc(OCC(=O)NS(=O)(=O)c2cccnc2)cc1C	Protein translocase subunit SecA (Escherichia coli (strain K12)) (UniProt P10408)	0.796
CCS(=O)(=O)N1C[C@H]2CN(Cc3cccnc3)C(=O)[C@H]2C1	Protein translocase subunit SecA (Escherichia coli (strain K12)) (UniProt P10408)	-1.39
COCCOc1ccc(NC(=O)C2CCCN(C(N)=O)C2)cn1 (configuration not stated)	Protein translocase subunit SecA (Escherichia coli (strain K12)) (UniProt P10408)	-4.58

Form field: reported Percent Effect of "Cn1ccc(CN2CCC(Oc3ccccc3)CC2)cc1=O"
-4.18

How about this compound: "CC(C)Oc1cc(N2CCC(N3CCC(O)CC3)CC2)nc(N)n1"
0.0362

How about this compound: "Cc1cc(NC(=O)CN2CCn3c(nnc3C(C)C)C2)no1"
-2.36

How about this compound: "Cc1ccc(S(=O)(=O)NC2CC2)cc1C"
1.16

How about this compound: "CN(CCC#N)C(=O)CCOc1cccc(F)c1"
-2.84

How about this compound: CCOc1ncccc1CNC(=O)N1CCCC1c1ccncc1 (configuration not stated)
-1.89

How about this compound: c1cnc(-c2nc(CN3CCCC(Cn4cncn4)C3)cs2)nc1 (configuration not stated)
-3.67
